# EXPERIMENTAL_TARGET: MT1 receptor (Homo sapiens)
# Sequence (P48039 whole entry): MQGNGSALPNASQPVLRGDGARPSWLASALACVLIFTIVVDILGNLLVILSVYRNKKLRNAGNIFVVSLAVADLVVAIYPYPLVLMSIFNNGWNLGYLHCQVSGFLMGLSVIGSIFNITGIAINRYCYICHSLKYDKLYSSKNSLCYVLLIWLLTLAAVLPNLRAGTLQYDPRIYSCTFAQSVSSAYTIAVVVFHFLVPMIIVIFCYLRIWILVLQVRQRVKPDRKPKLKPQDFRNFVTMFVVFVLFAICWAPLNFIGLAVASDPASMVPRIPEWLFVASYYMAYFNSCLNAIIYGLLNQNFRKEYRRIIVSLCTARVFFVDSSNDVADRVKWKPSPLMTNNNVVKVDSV
REPORTED_METRIC: Ki (µM)
Give the value in µM but do not write µM after it.

Query Ki on MT1 receptor (Homo sapiens) for CNC(=O)c1cc2ccc(OC)cc2n1CCNC(C)=O
0.018
